# target_entity: GlcNAc(b1-3)Gal(b1-4)GlcNAc(b1-3)Gal(b1-4)GlcNAc(b1-3)Gal(b1-4)GlcNAc(b1-2)Man(a1-3)[GlcNAc(b1-3)Gal(b1-4)GlcNAc(b1-3)Gal(b1-4)GlcNAc(b1-3)Gal(b1-4)GlcNAc(b1-2)Man(a1-6)]Man(b1-4)GlcNAc(b1-4)[Fuc(a1-6)]GlcNAc
# procedure_text: glycan array binding signal (z-score within array); higher = stronger binding
# run_conditions: glycan notation: IUPAC condensed, linker removed
This is one part of a sample in which the strongest signals are shown more often than they occur.
Would you kindly list glycan array binding signal (z-score) for each of these binders?
One number for each entry.

{"binder": "CLECb-Precomplexed (Mus musculus), P43025 (protein) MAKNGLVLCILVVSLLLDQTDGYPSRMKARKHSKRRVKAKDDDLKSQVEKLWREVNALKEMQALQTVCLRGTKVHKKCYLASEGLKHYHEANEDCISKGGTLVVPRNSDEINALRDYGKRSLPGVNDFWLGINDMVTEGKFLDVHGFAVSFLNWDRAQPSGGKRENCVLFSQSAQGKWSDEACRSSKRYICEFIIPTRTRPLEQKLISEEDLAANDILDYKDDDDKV", "glycan array binding signal (z-score)": -0.255}
{"binder": "PpFlo2 (Pichia pastoris) (protein) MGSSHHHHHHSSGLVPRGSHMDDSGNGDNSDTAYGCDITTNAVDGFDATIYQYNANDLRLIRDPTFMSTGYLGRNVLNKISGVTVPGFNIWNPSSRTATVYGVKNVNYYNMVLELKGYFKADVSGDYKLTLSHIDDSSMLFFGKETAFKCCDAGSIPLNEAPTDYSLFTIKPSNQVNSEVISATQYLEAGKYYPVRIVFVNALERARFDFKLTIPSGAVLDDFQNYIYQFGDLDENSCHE", "glycan array binding signal (z-score)": 7.22}

# next binder below
Exam item: Which glycan array binding signal (z-score) value belongs to ERGIC1-EDTA (Homo sapiens), Q969X5 (protein) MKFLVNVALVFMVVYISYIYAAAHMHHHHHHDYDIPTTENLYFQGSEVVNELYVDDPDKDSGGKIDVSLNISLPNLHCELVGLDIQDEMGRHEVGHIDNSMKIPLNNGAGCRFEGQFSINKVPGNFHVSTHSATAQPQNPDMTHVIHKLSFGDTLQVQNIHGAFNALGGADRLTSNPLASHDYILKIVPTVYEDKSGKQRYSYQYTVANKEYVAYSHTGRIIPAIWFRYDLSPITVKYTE ?
Marked response: 2.52
